System: ragweed
assay_comment: Test C preemergence
Assay type: in vivo, Ambrosia elation
measurement_conditions: preemergence, 125 g ai/ha; 13 to 15 days; scale 0 to 100, 0 = no effect, 100 = complete control

# record_smiles, tested_on, Plant response rating, Ragweed
records = [
    ("CCCNC(=O)c1cc(CCC)n(Cc2cc(C(F)(F)F)nn2C)n1", "ragweed", 98),
    ("CCCc1cc(C(=O)NCC)nn1Cc1cc(C(F)(F)F)nn1C", "ragweed", 98),
    ("CCOc1cc(C(=O)NC2CC2)nn1Cc1ccnc(OC(F)F)c1", "ragweed", 100),
    ("CCOc1cc(C(=O)NC2CC2)nn1Cc1ccnc(C(F)(F)F)c1", "ragweed", 100),
    ("CCOc1cc(C(=O)NC(C)C)nn1Cc1ccnc(C(F)(F)F)c1", "ragweed", 100),
]

----------
Test system: galium
assay_comment: Test A postemergence
Assay type: in vivo, Galium aparine
measurement_conditions: postemergence, 125 g ai/ha, about 10 days, visual rating on 0 to 100 scale (0 no effect, 100 complete control)
measurement_kind: Galium plant response rating

# compound, measurement_kind, experimental_value
measured = [
    ("CCOc1cc(C(=O)NC2CC2)nn1Cc1ccnc(OC(F)F)c1 [Compound 133]", "Galium plant response rating", 80),
    ("CCCNC(=O)c1cc(CC)n(Cc2cc(C(F)(F)F)no2)n1 [Compound 122]", "Galium plant response rating", 10),
    ("CCONC(=O)c1cc(CC)n(Cc2cc(C(F)(F)F)no2)n1 [Compound 125]", "Galium plant response rating", 60),
    ("CCc1cc(C(=O)NC(C)C)nn1Cc1cc(OC(F)F)nn1C [Compound 137]", "Galium plant response rating", 50),
]

----------
System: sedge, umbrella
assay_comment: Test B flood
Type: in vivo, Cyperus difformis
measurement_conditions: 250 g ai/ha, visual rating on 0 to 100 scale (0 no effect, 100 complete control), 13 to 15 days
measurement_kind: Plant response rating, Sedge, Umbrella

# record_smiles, experimental_value
data = [
    ("CCc1cc(C(=O)NCC2CC2)nn1Cc1ccnc(C(F)(F)F)c1", 90),
    ("CCCc1cc(C(=O)NCC(F)(F)F)nn1Oc1ccnc(C(F)(F)F)c1", 50),
    ("CCc1cc(C(=O)NC2CC2)nn1Cc1cc(C(F)(F)F)nn1CC", 85),
    ("CCCc1cc(C(=O)NCC(F)(F)F)nn1Cc1ccnc(C(F)(F)F)c1", 95),
    ("CCc1cc(C(=O)NC2CC2)nn1Cc1ccnc(OCC(F)(F)F)c1", 90),
    ("CCCc1cc(C(=O)NCC)nn1Cc1ccnc(C(F)(F)F)c1", 75),
    ("CCc1cc(C(=O)NOC)nn1Cc1ccnc(C(F)(F)F)c1", 75),
    ("CCc1cc(C(=O)NCC(F)(F)F)nn1Cc1cc(OC(F)F)nn1C", 0),
    ("CCNC(=O)c1cc(CC)n(Cc2ccnc(C(F)(F)F)c2)n1", 70),
    ("CCCNC(=O)c1cc(CC)n(Cc2cc(OC(F)F)nn2C)n1", 0),
    ("CCCNC(=O)c1cc(CC)n(Cc2nc(C(F)(F)F)no2)n1", 0),
    ("O=C(NCC(F)(F)F)c1cc(I)n(Cc2cccc(C(F)(F)F)c2)n1", 40),
    ("O=C(NCC(F)(F)F)c1cc(CCCl)n(Cc2ccnc(C(F)(F)F)c2)n1", 95),
    ("CCc1cc(C(=O)NCC(F)(F)F)nn1Cc1ccnc(OCC(F)(F)F)c1", 90),
    ("CCc1cc(C(=O)NCC(F)(F)F)nn1Oc1ccnc(C(F)(F)F)c1", 60),
    ("CCCc1cc(C(=O)NC2CC2)nn1Oc1ccnc(C(F)(F)F)c1", 50),
    ("CCCNC(=O)c1cc(C)n(Oc2ccnc(C(F)(F)F)c2)n1", 0),
    ("CCONC(=O)c1cc(OCC)n(Cc2ccnc(C(F)(F)F)c2)n1", 95),
    ("CCCc1cc(C(=O)NCC(F)(F)F)nn1Cc1cc(C(F)(F)F)nn1C", 90),
]

The reported numbers originate from patent US20150105252A1.
